system: Botrytis cinerea (B05.10); experiment: Resazurin antifungal assay of 180 alpha-factor peptide variants towards Botrytis (Example 2); format: cell-based; conditions: % inhibition of fungal growth, Botrytis conidia, peptide 15 μM, resazurin
Peptide text beside a SMILES is read from it.
readout: Inhibition at 15 μM

// query Inhibition at 15 μM value for entry CSCC[C@H](NC(=O)[C@H](CO)NC(=O)[C@H](C)NC(=O)CNC(=O)[C@@H]1CCCN1C(=O)[C@H](CCCCN)NC(=O)[C@H](CC(C)C)NC(=O)[C@H](CCCNC(=N)N)NC(=O)[C@H](CC(C)C)NC(=O)[C@H](Cc1c[nH]c2ccccc12)NC(=O)[C@H](Cc1c[nH]cn1)NC(=O)[C@@H](N)Cc1c[nH]c2ccccc12)C(=O)N[C@@H](Cc1ccc(O)cc1)C(=O)O [compound 76] (H-WHWLRLKPGASMY-OH; N-terminus and C-terminus assumed)
<90%
